Answer each item with its documented melting point.

### Prompt Find the measured melting point of COc1cc2c(Oc3ccc(NS(=O)(=O)c4cccc(F)c4)cc3F)ccnc2cc1OCCCN1CCCC(C)C1 (stereo not shown) [Example 37] and report it.
### Response 113 to 115 °C

### Prompt Find the measured melting point of COc1cc2c(Oc3ccc(NS(=O)(=O)c4cccc(OC(F)(F)F)c4)cc3F)ccnc2cc1OCCCN1CCCC(C)C1 (stereo not shown) [Example 46] and report it.
### Response 102 to 104 °C

### Prompt Find the measured melting point of COc1cc2c(Oc3ccc(NS(=O)(=O)c4c(Cl)cccc4Cl)cc3F)ccnc2cc1OCCCN1CCCCC1 [Example 6] and report it.
### Response 206 to 208 °C

### Prompt Find the measured melting point of COc1cc2c(Oc3cccc(NS(=O)(=O)c4ccc(C)s4)c3)ccnc2cc1OCCCN1CCN(C)CC1 [Example 131] and report it.
### Response 147 to 149 °C

### Prompt Find the measured melting point of COc1cc2c(Oc3ccc(Cl)c(NS(=O)(=O)c4ccccc4OC(F)(F)F)c3)ccnc2cc1OCCCN1CCC(C)CC1 [Example 196] and report it.
### Response 123 to 126 °C

### Prompt Find the measured melting point of COC(=O)c1sccc1S(=O)(=O)Nc1ccc(Oc2ccnc3cc(OCCCN4CCC(C)CC4)c(OC)cc23)c(F)c1 [Example 156] and report it.
### Response 139 to 141 °C

### Prompt Find the measured melting point of COc1cc2c(Oc3cccc(NS(=O)(=O)c4cc(F)ccc4F)c3)ccnc2cc1OCCCN1CCN(C)CC1 [Example 123] and report it.
### Response 186 to 188 °C

====

- Test system: Hs578T
- assay details: Matrigel outgrowth assay/branching assay
- Type: cell-based
- assay setup: Homo sapiens, Hs-578T; HS578T cell line; Table Ib; read-out: Total branching inhibition in Matrigel HS578T
Answer each item with its documented IC50.

### Prompt Find the measured IC50 of COc1cc2c(Oc3cccc(NS(=O)(=O)c4ccc(C)s4)c3)ccnc2cc1OCCCN1CCN(C)CC1 [Example 131] and report it.
### Response 10 to 25 µM

### Prompt Find the measured IC50 of COc1cc2c(Oc3ccc(NS(=O)(=O)c4cccc(C#N)c4)cc3F)ccnc2cc1OCCCN1CCCC(C)C1 (stereo not shown) [Example 41] and report it.
### Response ≤ 10 µM

### Prompt Find the measured IC50 of COc1cc2c(Oc3ccc(NS(=O)(=O)c4cnc(C)[nH]4)cc3F)ccnc2cc1OCCCN1CCOCC1 [Example 169] and report it.
### Response 10 to 25 µM

### Prompt Find the measured IC50 of COc1cc2c(Oc3ccc(NS(=O)(=O)c4ccccc4OC(F)(F)F)cc3C)ccnc2cc1OCCCN1CCC(C)CC1 [Example 174] and report it.
### Response ≤ 10 µM

### Prompt Find the measured IC50 of COC(=O)c1sccc1S(=O)(=O)Nc1ccc(Oc2ccnc3cc(OCCCN4CCOCC4)c(OC)cc23)c(F)c1 [Example 157] and report it.
### Response 10 to 25 µM

### Prompt Find the measured IC50 of COc1cc2c(Oc3ccc(NS(=O)(=O)c4c(Cl)cccc4Cl)cc3F)ccnc2cc1OCCN1CCOCC1 [Example 104] and report it.
### Response 10 to 25 µM

### Prompt Find the measured IC50 of COc1cc2c(Oc3ccc(NS(=O)(=O)c4ccco4)cc3F)ccnc2cc1OCCCN1CCCCC1C (stereo not shown) [Example 148] and report it.
### Response 10 to 25 µM

### Prompt Find the measured IC50 of COc1cc2c(Oc3ccc(NS(=O)(=O)c4cc(C)ccc4F)cc3F)ccnc2cc1OCCCN1CCCC(C)C1 (stereo not shown) [Example 55] and report it.
### Response ≤ 10 µM

### Prompt Find the measured IC50 of COC(=O)c1sccc1S(=O)(=O)Nc1cccc(Oc2ccnc3cc(OCCCN4CCN(C)CC4)c(OC)cc23)c1 [Example 135] and report it.
### Response 10 to 25 µM

### Prompt Find the measured IC50 of COc1cc2c(Oc3ccc(NS(=O)(=O)c4c(C)nn(C)c4C)cc3F)ccnc2cc1OCCCN1CCN(C)CC1 [Example 162] and report it.
### Response 10 to 25 µM

### Prompt Find the measured IC50 of COc1cc2c(Oc3cc(NS(=O)(=O)c4c(F)cccc4F)ccc3F)ccnc2cc1OCCCN1CCC(C)CC1 [Example 188] and report it.
### Response ≤ 10 µM

### Prompt Find the measured IC50 of COc1cc2c(Oc3ccc(NS(=O)(=O)c4cc(F)ccc4F)cc3F)ccnc2cc1OCCCN1CCN(C)CC1 [Example 12] and report it.
### Response ≤ 10 µM

### Prompt Find the measured IC50 of COc1cc2c(Oc3ccc(NS(=O)(=O)c4cc(Cl)cc(Cl)c4OC)cc3F)ccnc2cc1OCCCN1CCCC(C)C1 (stereo not shown) [Example 75] and report it.
### Response ≤ 10 µM

### Prompt Find the measured IC50 of COc1cc2c(Oc3cccc(NS(=O)(=O)c4sc(NC(C)=O)nc4C)c3)ccnc2cc1OCCCN1CCN(C)CC1 [Example 132] and report it.
### Response 10 to 25 µM

### Prompt Find the measured IC50 of COc1cc2c(Oc3ccc(NS(=O)(=O)c4ccccc4[N+](=O)[O-])cc3F)ccnc2cc1OCCCN1CCCC(C)C1 (stereo not shown) [Example 40] and report it.
### Response ≤ 10 µM

### Prompt Find the measured IC50 of COc1cc2c(Oc3ccc(NS(=O)(=O)c4ccsc4)cc3F)ccnc2cc1OCCCN1CCCC(C)C1 (stereo not shown) [Example 65] and report it.
### Response 10 to 25 µM

### Prompt Find the measured IC50 of COc1cc2c(Oc3ccc(NS(=O)(=O)c4ccccc4C#N)cc3F)ccnc2cc1OCCCN1CCN(C)CC1 [Example 15] and report it.
### Response ≤ 10 µM

### Prompt Find the measured IC50 of COc1cc2c(Oc3ccc(NS(=O)(=O)c4cccc(F)c4)cc3F)ccnc2cc1OCCCN1CCCC(C)C1 (stereo not shown) [Example 37] and report it.
### Response 10 to 25 µM

### Prompt Find the measured IC50 of COc1cc2c(Oc3ccc(NS(=O)(=O)c4ccc(F)c(Cl)c4)cc3F)ccnc2cc1OCCCN1CCCC(C)C1 (stereo not shown) [Example 57] and report it.
### Response ≤ 10 µM

### Prompt Find the measured IC50 of COc1cc2c(Oc3c(Cl)cc(NS(=O)(=O)c4ccccc4C(F)(F)F)cc3Cl)ccnc2cc1OCCCN1CCC(C)CC1 [Example 210] and report it.
### Response ≤ 10 µM

### Prompt Find the measured IC50 of COc1cc2c(Oc3ccc(NS(=O)(=O)c4c(Cl)csc4Cl)cc3F)ccnc2cc1OCCCN1CCCC(C)C1 (stereo not shown) [Example 64] and report it.
### Response 10 to 25 µM

### Prompt Find the measured IC50 of COc1cc2c(Oc3ccc(NS(=O)(=O)c4cc(Cl)ccc4Cl)cc3F)ccnc2cc1OCCCN1CCCC(C)C1 (stereo not shown) [Example 50] and report it.
### Response ≤ 10 µM

### Prompt Find the measured IC50 of COc1cc2c(Oc3ccc(NS(=O)(=O)c4c(F)cccc4F)cc3F)ccnc2cc1OCCCN1CCOCC1 [Example 77] and report it.
### Response ≤ 10 µM

### Prompt Find the measured IC50 of COc1ccc2nccc(Oc3ccc(NS(=O)(=O)C4CC4)cc3F)c2c1 [Example 206] and report it.
### Response 10 to 25 µM

### Prompt Find the measured IC50 of COc1cc2c(Oc3ccc(NS(=O)(=O)c4ccccc4OC(F)(F)F)cc3F)ccnc2cc1OCCCN(C)C [Example 179] and report it.
### Response 10 to 25 µM

### Prompt Find the measured IC50 of COc1cc2c(Oc3ccc(NS(=O)(=O)c4cc(Cl)ccc4Cl)cc3F)ccnc2cc1OCCCN1CCCCC1C (stereo not shown) [Example 154] and report it.
### Response 10 to 25 µM

### Prompt Find the measured IC50 of COc1cc2c(Oc3ccc(NS(=O)(=O)c4cccc5ccccc45)cc3F)ccnc2cc1OCCCN1CCCC(C)C1 (stereo not shown) [Example 58] and report it.
### Response ≤ 10 µM

### Prompt Find the measured IC50 of COc1cc2c(Oc3ccc(NS(=O)(=O)c4ccc(Cl)c(Cl)c4)cc3F)ccnc2cc1OCCCN1CCCC(C)C1 (stereo not shown) [Example 52] and report it.
### Response ≤ 10 µM

### Prompt Find the measured IC50 of COc1cc2c(Oc3ccc(NS(=O)(=O)c4ccc(Cl)cc4F)cc3F)ccnc2cc1OCCCN1CCN(C)CC1 [Example 27] and report it.
### Response ≤ 10 µM

### Prompt Find the measured IC50 of COc1cc2c(Oc3ccc(NS(=O)(=O)c4cc(Cl)cc(Cl)c4)cc3F)ccnc2cc1OCCCN1CCCC(C)C1 (stereo not shown) [Example 53] and report it.
### Response 10 to 25 µM

### Prompt Find the measured IC50 of COc1cc2c(Oc3ccc(NS(=O)(=O)c4cc(F)ccc4F)cc3F)ccnc2cc1OCCCNC(=O)OC(C)(C)C [Example 121] and report it.
### Response 10 to 25 µM
